The measurements presented in this section are drawn from patent US10501461B2.

pKi: −log10 of the molar value.
pKi, Rho kinase 2 (ROCK-II) (Homo sapiens), per-entry values.

Example results:
- MOLECULE: "Cc1c[nH]c2nccc(Oc3ccc(CC(N)C(=O)N4CCN(Cc5ccccc5)CC4)cc3F)c12 (single isomer, unassigned) [Example 132B]"
  pKi: "> 8.52"
- MOLECULE: "NC(Cc1ccc(Oc2ccnc3[nH]ccc23)cc1)C(=O)Nc1ccc(C(F)(F)F)cc1 (stereo not drawn) [Example 91]"
  pKi: "> 8.52"
- MOLECULE: "Cc1c[nH]c2nccc(Oc3ccc(C[C@H](N)C(=O)NC4(CO)CCN(C)CC4)cc3F)c12 [Example 37]"
  pKi: "> 8.52"
- MOLECULE: "CCn1nccc1-c1c[nH]c2nccc(Oc3ccc(C[C@H](N)C(=O)N4CCN(Cc5ccccc5)CC4)cc3)c12 [Example 193]"
  pKi: "7.52 to 8.52"

Task item: Given the molecule CN(C)C(=O)C(Cc1ccc(Oc2ccnc3[nH]ccc23)cc1)NC(=O)C1CCNC1 (stereo not drawn) [Example 178] , what is its reported pKi?
Reply: < 7.52

Task item: Here is the next molecule: Cc1c[nH]c2nccc(Oc3ccc(CC(N)C(=O)N4CCn5cncc5C4)cc3F)c12 (stereo not drawn) [Example 81]
Reply: > 8.52

Task item: Here is the next molecule: Cc1c[nH]c2nccc(Oc3ccc(CC(N)C(=O)NCC4CCN(Cc5ccccc5)CC4)cc3F)c12 (stereo not drawn) [Example 82]
Reply: > 8.52

Task item: Here is the next molecule: N[C@@H](Cc1ccc(Oc2ccnc3[nH]cc(F)c23)cc1)C(=O)N1CCN(Cc2ccccc2)CC1 [Example 114]
Reply: > 8.52

Task item: Here is the next molecule: N[C@@H](Cc1ccc(Oc2ccnc3[nH]cc(C#CCO)c23)cc1)C(=O)NC1CCCCC1 [Example 217]
Reply: > 8.52

Task item: Here is the next molecule: N[C@H](Cc1ccc(Oc2ccnc3[nH]ccc23)cc1)C(=O)NCC1CCCCC1 [Example 108]
Reply: 7.52 to 8.52

Task item: Here is the next molecule: Cc1c[nH]c2nccc(Oc3ccc(C[C@H](N)C(=O)NCCc4cnn(-c5ccccc5)c4)cc3F)c12 [Example 56]
Reply: > 8.52

Task item: Here is the next molecule: N[C@@H](Cc1ccc(Oc2ccnc3[nH]cc(C4CC4)c23)cc1)C(=O)NC1CCCCC1 [Example 203]
Reply: > 8.52

Task item: Here is the next molecule: Cc1c[nH]c2nccc(Oc3ccc(C[C@@H](N)C(=O)Nc4ccccc4)cc3)c12 [Example 138]
Reply: 7.52 to 8.52

Task item: Here is the next molecule: N[C@@H](Cc1ccc(Oc2ccnc3[nH]cc(CCO)c23)cc1)C(=O)N1CCN(Cc2ccccc2)CC1 [Example 216]
Reply: > 8.52

----------
Ki, Rho kinase 1 (ROCK-I) (Homo sapiens), per-entry values.

Example results:
- COMPOUND: "Cc1c[nH]c2ncnc(Oc3ccc(C[C@H](N)C(=O)N4CCN(Cc5ccccc5)CC4)cc3F)c12"
  Ki: "< 3 nM"
- COMPOUND: "N[C@@H](Cc1ccc(Oc2ccnc3[nH]ccc23)cc1)C(=O)NCc1ccccc1"
  Ki: "3 to 30 nM"
- COMPOUND: "Cc1c[nH]c2nccc(Oc3ccc(C[C@H](N)C(=O)N(C)C4CCCCC4)cc3)c12"
  Ki: "< 3 nM"
- COMPOUND: "Cc1c[nH]c2nccc(Oc3ccc(CC(N)C(=O)NCCc4ccccc4)cc3F)c12 (centres unmarked)"
  Ki: "< 3 nM"

Task item: Given the compound `Cc1c[nH]c2nccc(Oc3ccc(C[C@H](N)C(=O)N4CCN(C(=O)c5cccc(CN(C)C)c5)CC4)cc3F)c12` , what is its reported Ki?
Reply: < 3 nM

----------
Ki, Rho kinase 2 (ROCK-II) (Homo sapiens, UniProt O75116), per-entry values.

Example results:
- MOLECULE: "CN(C)CCNC(=O)[C@@H](N)Cc1ccc(Oc2ccnc3[nH]ccc23)cc1"
  STUDY_TARGET: "Rho kinase 2 (ROCK-II) (Homo sapiens, UniProt O75116)"
  Ki: "> 30 nM"
- MOLECULE: "N[C@@H](Cc1ccc(Oc2ccnc3[nH]cc(C4=CCNC4)c23)cc1)C(=O)N1CCN(Cc2ccccc2)CC1"
  STUDY_TARGET: "Rho kinase 2 (ROCK-II) (Homo sapiens, UniProt O75116)"
  Ki: "3 to 30 nM"
- MOLECULE: "Cc1cc2c(Oc3ccc(C[C@H](N)C(=O)N4CCN(Cc5ccccc5)CC4)cc3F)ccnc2[nH]1"
  STUDY_TARGET: "Rho kinase 2 (ROCK-II) (Homo sapiens, UniProt O75116)"
  Ki: "> 30 nM"
- MOLECULE: "Cc1c[nH]c2ncnc(Oc3ccc(C[C@H](N)C(=O)N4CCN(C5CC5)CC4)cc3F)c12"
  STUDY_TARGET: "Rho kinase 2 (ROCK-II) (Homo sapiens, UniProt O75116)"
  Ki: "< 3 nM"
- MOLECULE: "Cc1c[nH]c2nccc(Oc3ccc(C[C@H](N)C(=O)NC4(CCO)CCCCC4)cc3F)c12"
  STUDY_TARGET: "Rho kinase 2 (ROCK-II) (Homo sapiens, UniProt O75116)"
  Ki: "< 3 nM"

Let us examine a further case.
Task item: Given the molecule `Cc1c[nH]c2nccc(Oc3ccc(C[C@H](N)C(=O)N4CCN(Cc5ccccc5)CC4)cc3)c12` , what is its reported Ki?
Reply: < 3 nM

----------
- STUDY_TARGET: UniProt O75116
QUANTITY: Ki

Example results:
- MOLECULE: "N[C@@H](Cc1ccc(Oc2ccnc3[nH]ccc23)cc1)C(=O)Nc1ccccc1"
  Ki: "3 to 30 nM"
- MOLECULE: "N[C@@H](Cc1ccc(Oc2ccnc3[nH]cc(Cl)c23)cc1)C(=O)NC1CCCCC1"
  Ki: "< 3 nM"
- MOLECULE: "Cc1c[nH]c2nccc(Oc3ccc(C[C@H](N)C(=O)Nc4ccccc4)cc3)c12"
  Ki: "< 3 nM"
- MOLECULE: "Cc1c[nH]c2ncnc(Oc3ccc(C[C@H](N)C(=O)N4C[C@@H](C)N(C)[C@@H](C)C4)cc3F)c12"
  Ki: "< 3 nM"
- MOLECULE: "Cc1c[nH]c2nccc(Oc3ccc(C[C@H](N)C(=O)N4CCc5ccccc5C4)cc3F)c12"
  Ki: "< 3 nM"
- MOLECULE: "Cc1c[nH]c2nccc(Oc3ccc(CC(N)C(=O)N4CCN(Cc5ccccc5)CC4)cc3F)c12 (single isomer, unassigned) [Example 132A]"
  Ki: "< 3 nM"
- MOLECULE: "Cc1c[nH]c2nccc(Oc3ccc(CC(N)C(=O)N4CCN(Cc5ccc(F)cc5)CC4)cc3F)c12 (stereo not shown)"
  Ki: "< 3 nM"
- MOLECULE: "N[C@H](Cc1cc(F)c(Oc2ccnc3[nH]ccc23)c(F)c1)C(=O)NC1CCCCC1"
  Ki: "3 to 30 nM"

Task item: // fetch UniProt O75116 Ki for `N#Cc1c[nH]c2ncnc(Oc3ccc(C[C@H](N)C(=O)N4CCN(Cc5ccccc5)CC4)cc3F)c12`
Reply: < 3 nM

Task item: Here is the next molecule: `Cc1c[nH]c2nccc(Oc3ccc(C[C@H](N)C(=O)NC4CCN(C)CC4)cc3F)c12`
Reply: < 3 nM
